Target: androgen receptor (AR) splicing variant AR-v7 (Homo sapiens, UniProt P10275)
Construct: The degradation activity of compounds on AR-v7 in 22RV1 cells; host or cells: 22RV1 cells
Sequence (P10275 1-644 isoform P10275-3): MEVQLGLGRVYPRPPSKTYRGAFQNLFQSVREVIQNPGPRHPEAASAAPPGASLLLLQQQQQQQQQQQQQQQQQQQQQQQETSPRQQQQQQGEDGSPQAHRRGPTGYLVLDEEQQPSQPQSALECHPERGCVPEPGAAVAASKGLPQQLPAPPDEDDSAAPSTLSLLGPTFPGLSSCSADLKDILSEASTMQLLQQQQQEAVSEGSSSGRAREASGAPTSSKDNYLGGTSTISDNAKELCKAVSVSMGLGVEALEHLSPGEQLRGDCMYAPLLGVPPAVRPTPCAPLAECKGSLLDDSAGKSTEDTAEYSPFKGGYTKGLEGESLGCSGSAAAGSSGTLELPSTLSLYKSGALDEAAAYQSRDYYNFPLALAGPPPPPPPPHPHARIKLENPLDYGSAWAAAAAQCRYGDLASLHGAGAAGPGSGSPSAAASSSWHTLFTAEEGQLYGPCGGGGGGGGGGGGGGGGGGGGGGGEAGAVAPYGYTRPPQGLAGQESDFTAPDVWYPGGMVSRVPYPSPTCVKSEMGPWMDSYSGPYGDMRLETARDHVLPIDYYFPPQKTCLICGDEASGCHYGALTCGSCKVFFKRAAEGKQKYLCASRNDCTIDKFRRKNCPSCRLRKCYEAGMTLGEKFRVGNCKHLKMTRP
Experiment: Degradation activity on androgen receptor splicing variant AR-v7 in 22RV1 cells (ELISA)
Assay type: cell-based
Conditions: AR-v7 degradation in 22RV1 cells, 48 h, class symbols

COMPOUND: CCC(CC)(c1ccc(Oc2cnc(C(C)O)nc2)cc1)c1ccc(O[C@H]2C[C@H](Nc3ccc4c(c3)C(=O)N(C3CCC(=O)NC3=O)C4=O)C2)cc1 (some centres unmarked)
SYSTEM_NAME: androgen receptor (AR) splicing variant AR-v7 (Homo sapiens, UniProt P10275)
DC50: < 10 nM

COMPOUND: CCC(O)c1ncc(Oc2ccc(C(C)(C)c3ccc(O[C@H]4C[C@H](Nc5ccc6c(c5)C(=O)N(C5CCC(=O)NC5=O)C6=O)C4)cc3)cc2)cn1 (some centres unmarked)
SYSTEM_NAME: androgen receptor (AR) splicing variant AR-v7 (Homo sapiens, UniProt P10275)
DC50: < 10 nM

COMPOUND: CC1CN(c2nccc(COc3ccc(C(C)(C)c4ccc(OCCCCCCCCOCCCCNc5ccc6c(c5)C(=O)N(C5CCC(=O)NC5=O)C6=O)cc4)cc3)n2)C1 (centres unmarked)
SYSTEM_NAME: androgen receptor (AR) splicing variant AR-v7 (Homo sapiens, UniProt P10275)
DC50: 1000 to 5000 nM

COMPOUND: CC1(N)CN(c2nccc(COc3ccc(C(C)(C)c4ccc(O[C@H]5C[C@H](Nc6ccc7c(c6)C(=O)N(C6CCC(=O)NC6=O)C7=O)C5)cc4)cc3)n2)C1 (some centres unmarked)
SYSTEM_NAME: androgen receptor (AR) splicing variant AR-v7 (Homo sapiens, UniProt P10275)
DC50: < 10 nM

COMPOUND: CC(C)(c1ccc(Oc2cncc(N3CC4(COC4)C3)n2)cc1)c1ccc(O[C@H]2C[C@@H](Nc3ccc4c(c3)C(=O)N(C3CCC(=O)NC3=O)C4=O)C2)cc1 (some centres unmarked)
SYSTEM_NAME: androgen receptor (AR) splicing variant AR-v7 (Homo sapiens, UniProt P10275)
DC50: 11 to 100 nM
